Source listed as ChEMBL document CHEMBL3734675.

- Tested on: Klebsiella pneumoniae
- method.description: Antibacterial activity against Klebsiella pneumoniae 14-3 after 18 to 24 hrs by two-fold serial dilution method
- Type: functional
reported.endpoint: MIC (µg/mL)
# value in µg/mL; strip the unit string

# molecule, endpoint.unit, MIC
data = [
    ("C[C@H]1COc2c(N3C/C(=N/OCc4ccccc4)C(CNC4CC4)C3)c(F)cc3c(=O)c(C(=O)O)cn1c23 (some centres undefined)", "µg/mL", 64),
]

In one line, give reported MIC of the entry CO/N=C1/CN(c2nc3c(cc2F)c(=O)c(C(=O)O)cn3[C@@H]2C[C@@H]2F)CC1(C)CNC1CC1 (some centres undefined) .
128

====

Each entry below carries its recorded MIC.
- Test system: Escherichia coli
- method.description: Antibacterial activity against extended-spectrum beta-lactamase producing Escherichia coli 14-1 after 18 to 24 hrs by two-fold serial dilution method
- Format: functional
Kindly provide the numeric value in µg/mL only, without the unit symbol.

Here are 5 compounds together with their reported answers.
# compound, MIC (µg/mL)
records = [
    ("CO/N=C1/CN(c2c(F)cc3c(=O)c(C(=O)O)cn4c3c2OC[C@@H]4C)CC1(C)CNC1CC1 (stereo partly drawn)", 4),
    ("CCO/N=C1/CN(c2nc3c(cc2F)c(=O)c(C(=O)O)cn3-c2nc(N)c(F)cc2F)CC1(C)CNC1CC1 (stereo not drawn)", 64),
    ("Nc1nc(-n2cc(C(=O)O)c(=O)c3cc(F)c(N4C/C(=N/OCc5ccccc5)C(CNC5CC5)C4)nc32)c(F)cc1F (stereo not drawn)", 64),
    ("CCO/N=C1/CN(c2nc3c(cc2F)c(=O)c(C(=O)O)cn3C2CC2)CC1(C)CNC1CC1 (stereo not drawn)", 32),
    ("CC1(CNC2CC2)CN(c2nc3c(cc2F)c(=O)c(C(=O)O)cn3[C@@H]2C[C@@H]2F)C/C1=N/OCc1ccccc1 (stereo partly drawn)", 32),
]

Return MIC (reported value) for this compound: O=C(O)c1cn([C@@H]2C[C@@H]2F)c2nc(N3C/C(=N/OCc4ccccc4)C(CNC4CC4)C3)c(F)cc2c1=O (stereo partly drawn)
16

Return reported MIC. Input compound: CCO/N=C1/CN(c2nc3c(cc2F)c(=O)c(C(=O)O)cn3[C@@H]2C[C@@H]2F)CC1(C)CNC1CC1 (stereo partly drawn)
32

====

- System: Klebsiella pneumoniae
- method.description: Antibacterial activity against extended-spectrum beta-lactamase producing Klebsiella pneumoniae 14-17 after 18 to 24 hrs by two-fold serial dilution method
- Format: functional
reported.endpoint: MIC (µg/mL)
State just the number; it will be interpreted in µg/mL.

A selection of reference data follows.
# molecule, tgt, endpoint.unit, MIC
rows = [
    ("CCO/N=C1/CN(c2nc3c(cc2F)c(=O)c(C(=O)O)cn3[C@@H]2C[C@@H]2F)CC1(C)CNC1CC1 (stereo partly drawn)", "Klebsiella pneumoniae", "µg/mL", 64),
    ("CCO/N=C1/CN(c2nc3c(cc2F)c(=O)c(C(=O)O)cn3[C@@H]2C[C@@H]2F)CC1CNC1CC1 (stereo partly drawn)", "Klebsiella pneumoniae", "µg/mL", 32),
]

Quote Klebsiella pneumoniae MIC for entry CC1(CNC2CC2)CN(c2nc3c(cc2F)c(=O)c(C(=O)O)cn3[C@@H]2C[C@@H]2F)C/C1=N/OCc1ccccc1 (stereo partly drawn) .
64

====

Recorded measurements of MIC, one per entry
- Tested on: Pseudomonas aeruginosa
- method.description: Antibacterial activity against Pseudomonas aeruginosa 14-16 after 18 to 24 hrs by two-fold serial dilution method
- Assay type: functional
Provide only the numeric value, understood in µg/mL.

These solved cases illustrate the format of a correct answer.
# compound, tgt, reported.endpoint, data.value
measured = [
    ("CO/N=C1/CN(c2c(F)cc3c(=O)c(C(=O)O)cn4c3c2OC[C@@H]4C)CC1CNC1CC1 (some centres undefined)", "Pseudomonas aeruginosa", "MIC", 64),
    ("O=C(O)c1cn2c3c(c(N4C/C(=N/OCc5ccccc5)C(CNC5CC5)C4)c(F)cc3c1=O)OC[C@@H]2CF (some centres undefined)", "Pseudomonas aeruginosa", "MIC", 32),
]

Consider now this further compound.
With Pseudomonas aeruginosa as the test system, provide measured MIC for this compound: CO/N=C1/CN(c2nc3c(cc2F)c(=O)c(C(=O)O)cn3-c2nc(N)c(F)cc2F)CC1CNC1CC1 (centres undefined)
64

====

- Test system: Staphylococcus aureus
- method.description: Antibacterial activity against methicillin-resistant Staphylococcus aureus 14-5 after 18 to 24 hrs by two-fold serial dilution method
- Assay type: functional
reported.endpoint: MIC (µg/mL)
Write the number in µg/mL without appending the unit.

# return recorded MIC for input C[C@H]1COc2c(N3C/C(=N/OCc4ccccc4)C(CNC4CC4)C3)c(F)cc3c(=O)c(C(=O)O)cn1c23 (stereo partly drawn)
4

# return recorded MIC for input CCO/N=C1/CN(c2nc3c(cc2F)c(=O)c(C(=O)O)cn3-c2nc(N)c(F)cc2F)CC1CNC1CC1 (stereo not drawn)
8

====

Parameter: MIC. Scope: all listed entries.
- System: Pseudomonas aeruginosa
- method.description: Antibacterial activity against Pseudomonas aeruginosa 14-15 after 18 to 24 hrs by two-fold serial dilution method
- Format: functional
Reply numerically in µg/mL, unit not repeated.

Consider the following illustrative entries.
# molecule, data.value
data = [
    ("O=C(O)c1cn([C@@H]2C[C@@H]2F)c2nc(N3C/C(=N/OCc4ccccc4)C(CNC4CC4)C3)c(F)cc2c1=O (stereo not given in full)", 64),
    ("CO/N=C1/CN(c2nc3c(cc2F)c(=O)c(C(=O)O)cn3[C@@H]2C[C@@H]2F)CC1(C)CNC1CC1 (stereo not given in full)", 64),
    ("Nc1nc(-n2cc(C(=O)O)c(=O)c3cc(F)c(N4C/C(=N/OCc5ccccc5)C(CNC5CC5)C4)nc32)c(F)cc1F (stereo not given)", 128),
]

Read the entry CCO/N=C1/CN(c2nc3c(cc2F)c(=O)c(C(=O)O)cn3[C@@H]2C[C@@H]2F)CC1(C)CNC1CC1 (stereo not given in full) and write its reported MIC.
64

Please give the documented MIC of CC1(CNC2CC2)CN(c2nc3c(cc2F)c(=O)c(C(=O)O)cn3-c2nc(N)c(F)cc2F)C/C1=N/OCc1ccccc1 (stereo not given)
128

Look up MIC of CO/N=C1/CN(c2c(F)cc3c(=O)c(C(=O)O)cn4c3c2OC[C@@H]4C)CC1(C)CNC1CC1 (stereo not given in full) and report it.
32

Fill in reported MIC for this entry: CO/N=C1/CN(c2c(F)cc3c(=O)c(C(=O)O)cn(C4CC4)c3c2OC)CC1CNC1CC1 (stereo not given)
128

Annotate the molecule CCO/N=C1/CN(c2c(F)cc3c(=O)c(C(=O)O)cn4c3c2OC[C@@H]4C)CC1(C)CNC1CC1 (stereo not given in full) with its measured MIC.
64

Report MIC, nothing else, for this molecule: O=C(O)c1cn(C2CC2)c2nc(N3C/C(=N/OCc4ccccc4)C(CNC4CC4)C3)c(F)cc2c1=O (stereo not given)
128

Please give measured MIC of the following entry: O=C(O)c1cn(C2CC2)c2cc(N3CCNCC3)c(F)cc2c1=O
1

====

- Tested on: Pseudomonas aeruginosa
- method.description: Antibacterial activity against Pseudomonas aeruginosa 14-15 after 18 to 24 hrs by two-fold serial dilution method
- Type: functional
MIC for assorted molecules

Solved entries:
# molecule, MIC
rows = [
    ("CO/N=C1/CN(c2c(F)cc3c(=O)c(C(=O)O)cn4c3c2OC[C@@H]4CF)CC1(C)CNC1CC1 (some centres not stated)", "128 µg/mL"),
    ("CCO/N=C1/CN(c2c(F)cc3c(=O)c(C(=O)O)cn([C@@H]4C[C@@H]4F)c3c2OC)CC1CNC1CC1 (some centres not stated)", "32 µg/mL"),
    ("CO/N=C1/CN(c2c(F)cc3c(=O)c(C(=O)O)cn4c3c2OC[C@@H]4C)CC1CNC1CC1 (some centres not stated)", "> 64 µg/mL"),
    ("CO/N=C1/CN(c2nc3c(cc2F)c(=O)c(C(=O)O)cn3C2CC2)CC1CNC1CC1 (configuration not stated)", "32 µg/mL"),
    ("O=C(O)c1cn2c3c(c(N4C/C(=N/OCc5ccccc5)C(CNC5CC5)C4)c(F)cc3c1=O)OC[C@@H]2CF (some centres not stated)", "64 µg/mL"),
]

Read the entry CO/N=C1/CN(c2nc3c(cc2F)c(=O)c(C(=O)O)cn3-c2nc(N)c(F)cc2F)CC1CNC1CC1 (configuration not stated) and write its reported MIC.
128 µg/mL

Assign MIC to the following record: CCO/N=C1/CN(c2nc3c(cc2F)c(=O)c(C(=O)O)cn3C2CC2)CC1CNC1CC1 (configuration not stated)
32 µg/mL

Please look at this molecule and report its MIC: C[C@H]1COc2c(N3C/C(=N/OCc4ccccc4)C(CNC4CC4)C3)c(F)cc3c(=O)c(C(=O)O)cn1c23 (some centres not stated)
64 µg/mL

Give recorded MIC. CC1(CNC2CC2)CN(c2nc3c(cc2F)c(=O)c(C(=O)O)cn3C2CC2)C/C1=N/OCc1ccccc1 (configuration not stated)
128 µg/mL

Give the reported MIC for this molecule. CCO/N=C1/CN(c2nc3c(cc2F)c(=O)c(C(=O)O)cn3C2CC2)CC1(C)CNC1CC1 (configuration not stated)
64 µg/mL

Query MIC for CC1(CNC2CC2)CN(c2nc3c(cc2F)c(=O)c(C(=O)O)cn3[C@@H]2C[C@@H]2F)C/C1=N/OCc1ccccc1 (some centres not stated)
64 µg/mL

Please indicate MIC recorded for CO/N=C1/CN(c2nc3c(cc2F)c(=O)c(C(=O)O)cn3[C@@H]2C[C@@H]2F)CC1CNC1CC1 (some centres not stated)
64 µg/mL

Consider the molecule CCO/N=C1/CN(c2nc3c(cc2F)c(=O)c(C(=O)O)cn3[C@@H]2C[C@@H]2F)CC1CNC1CC1 (some centres not stated) and give its recorded MIC.
32 µg/mL

Indicate the recorded MIC value for this molecule: CO/N=C1/CN(c2nc3c(cc2F)c(=O)c(C(=O)O)cn3-c2nc(N)c(F)cc2F)CC1(C)CNC1CC1 (configuration not stated)
128 µg/mL

Answer with the recorded MIC of CO/N=C1/CN(c2nc3c(cc2F)c(=O)c(C(=O)O)cn3C2CC2)CC1(C)CNC1CC1 (configuration not stated) only.
64 µg/mL

Return MIC (reported value) for this molecule: CCO/N=C1/CN(c2nc3c(cc2F)c(=O)c(C(=O)O)cn3-c2nc(N)c(F)cc2F)CC1CNC1CC1 (configuration not stated)
128 µg/mL

Answer with the recorded MIC of CCO/N=C1/CN(c2nc3c(cc2F)c(=O)c(C(=O)O)cn3-c2nc(N)c(F)cc2F)CC1(C)CNC1CC1 (configuration not stated) only.
128 µg/mL
